Assay: AUC (0 to infinity) in Sprague-Dawley rat at 5 mg/kg, po treated with 10 mg/kg elacridar immediately after compound dosing
Assay type: ADME, organism-based
Set-up: dose 5 mg/kg, route oral, time infinity
Settings: in vivo, with elacridar 10 mg/kg
outcome-measure: AUC(0-inf) (µM·h)
Only the number, expressed in µM·h, is required.

query: For the molecule C=C(C)[C@@H]1CC[C@]2(NCCN3CCS(=O)(=O)CC3)CC[C@]3(C)[C@H](CC[C@@H]4[C@@]5(C)CC=C(c6ccc(C(=O)O)cc6)C(C)(C)[C@@H]5CC[C@]43C)[C@@H]12 , report AUC(0-inf).
result: 47.4
